# assayTarget: FcγRIIB on Raji cells (human (endogenous in Raji)) (UniProt P31994)
# testName: flow cytometry on cells; 250.000 Raji cells (FcγRIIB+, CD20+) with 6G11 or light chain constructs 1000-0.005 nM (1:5 dilutions), 30 min RT in PBS-B; anti-human Fc PE secondary antibody
measurementLabel: EC50 (nM)
Report the value in nM with no unit label.

Given the entry 6G11 (BI‐1206), full‐length antibody containing the PGLALA Fc mutations , what EC50 was observed with FcγRIIB on Raji cells (human (endogenous in Raji)) (UniProt P31994)?
0.4
